Reported IC50 values follow for various molecules
# Test system: 293T-HRE-GFP-luc cells
# protocol_text: Cell-based reporter assay for IC50 determinations (HRE-luciferase, hypoxia)
# stated_conditions: 6 hrs hypoxia (1% O2), luminescence

1. O=c1ccc(-c2nc(-c3ccc(OC(F)(F)F)cc3)no2)cn1Cc1cccc(OCC(O)CO)c1 (single isomer, unassigned) [Example 55b]    < 100 nM
2. COCCOc1cccc(Cn2cc(-c3noc(-c4ccc(C(F)(F)F)cc4)n3)ccc2=O)c1    100 to 1000 nM
3. CN1CCN(c2cccc(Cn3cc(-c4nc(-c5ccc(OC(F)(F)F)cc5)co4)ccc3=O)c2)CC1    < 100 nM
4. CN1CCN(c2cc(Cn3cc(-c4nc(-c5ccc(OC(F)(F)F)cc5)no4)ccc3=O)ccn2)CC1 [Example 7, bis-trifluoroacetate]    < 100 nM
5. CC(C)(C)[Si](C)(C)OCCOc1cccc(Cn2nc(-c3nc(-c4ccc(OC(F)(F)F)cc4)no3)ccc2=O)c1    100 to 1000 nM
6. O=c1ccc(-c2nc(-c3ccc(OC(F)(F)F)cc3)no2)cn1Cc1cccc(OCC(O)CO)c1 (single isomer, unassigned) [Example 55a]    < 100 nM
7. O=c1ccc(-c2nc(-c3ccc(OC(F)(F)F)cc3)no2)cn1Cc1cccc(C(O)CO)c1 (single isomer, unassigned) [Example 53b]    < 100 nM
8. O=c1ccc(-c2nc(-c3ccc(OC(F)(F)F)cc3)no2)cn1Cc1cccc(C(O)CO)c1 (single isomer, unassigned) [Example 53a]    < 100 nM

## Input Return IC50 for the following molecule: "CN1CCN(c2cccc(Cn3cc(-c4ncc(-c5ccc(OC(F)(F)F)cc5)o4)ccc3=O)c2)CC1"
## Output < 100 nM

* * *

# System: 293T-HRE-GFP-luc cells
# protocol_text: Cell-based reporter assay for IC50 determinations (HRE-luciferase, hypoxia)
# stated_conditions: 6 h, 6 hrs hypoxia (1% O2), luminescence
pIC50: −log10 of the molar value.
measurement_name: pIC50

1) CN1CCN(c2cc(Cn3cccc(-c4nc(-c5ccc(OC(F)(F)F)cc5)no4)c3=O)ccn2)CC1    6.00 to 7.00
2) O=c1ccc(-c2nc(-c3ccc(OC(F)(F)F)cc3)no2)nn1Cc1cccc(N2CCOCC2)c1    > 7.00
3) O=c1ccc(-c2nc(-c3ccc(OC(F)(F)F)cc3)no2)cn1Cc1cccc(N2CCCS2(=O)=O)c1    > 7.00
4) COCCOc1cccc(Cn2cc(-c3noc(-c4ccc(C(=O)N5CCCC5)cc4)n3)ccc2=O)c1    6.00 to 7.00
5) O=c1ccc(-c2nc(-c3ccc(OC(F)(F)F)cc3)no2)nn1Cc1cccc(O)c1    6.00 to 7.00

## Input Specify reported pIC50 for the compound shown: "COCCOc1cc(Cn2cc(-c3nc(-c4ccc(OC(F)(F)F)cc4)no3)ccc2=O)ccn1"
## Output 6.00 to 7.00

## Input Consider the compound "COC(=O)c1cc(Cn2nc(-c3nc(-c4ccc(OC(F)(F)F)cc4)no3)ccc2=O)ccn1" . State its measured pIC50.
## Output 5.00 to 6.00

## Input For the compound "Cc1ccc(-c2nc(-c3ccc(OC(F)(F)F)cc3)no2)c(=O)n1Cc1cccc(OC(F)F)c1" , give its reported pIC50.
## Output 6.00 to 7.00
